Known OD450 of a selection of binders
# Target Entity: T1, hFc tagged monkey LAG-3 protein (cLAG-3-hFc protein) (monkey; human)
# T1 construct: Made in HEK293 cells; also called monkey LAG-3 extracellular domain protein; not shown: human IgG Fc fragment (hFc) of the pCpC vector
# T1 chain: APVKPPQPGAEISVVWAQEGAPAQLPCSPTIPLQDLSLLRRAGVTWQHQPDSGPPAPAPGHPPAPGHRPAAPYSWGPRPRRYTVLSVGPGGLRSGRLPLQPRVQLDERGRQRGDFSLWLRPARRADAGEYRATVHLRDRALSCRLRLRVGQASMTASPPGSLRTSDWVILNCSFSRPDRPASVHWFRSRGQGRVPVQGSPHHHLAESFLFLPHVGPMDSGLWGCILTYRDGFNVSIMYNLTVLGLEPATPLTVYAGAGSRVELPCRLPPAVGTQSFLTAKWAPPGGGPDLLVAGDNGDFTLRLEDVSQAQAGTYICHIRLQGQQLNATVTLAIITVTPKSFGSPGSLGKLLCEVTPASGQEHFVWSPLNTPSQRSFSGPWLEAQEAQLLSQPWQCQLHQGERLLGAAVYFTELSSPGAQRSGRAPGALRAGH
# Assay Procedure: ELISA, cLAG-3-hFc coated; 0.0067 nM
Measured Quantity: OD450 (OD450)

INSERT INTO measurements (binder, measured_quantity, observed_measurement) VALUES
  ('409B11E12 (LAG-3 mouse-human chimeric antibody) (antibody, V domains shown) VH: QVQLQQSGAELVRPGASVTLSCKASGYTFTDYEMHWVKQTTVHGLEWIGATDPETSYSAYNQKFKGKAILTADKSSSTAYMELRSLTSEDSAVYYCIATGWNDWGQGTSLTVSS VL: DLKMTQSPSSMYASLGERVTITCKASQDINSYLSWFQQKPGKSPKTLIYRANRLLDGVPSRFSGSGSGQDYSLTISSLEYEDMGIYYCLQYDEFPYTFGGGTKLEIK', 'OD450', 0.39),
  ('405B8H3 (LAG-3 mouse-human chimeric antibody) (antibody, V domains shown, also called mouse-human chimeric antibody 405B8H3) VH: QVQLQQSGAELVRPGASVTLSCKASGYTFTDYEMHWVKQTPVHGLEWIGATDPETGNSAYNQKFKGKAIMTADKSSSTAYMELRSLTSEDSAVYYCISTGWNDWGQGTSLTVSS VL: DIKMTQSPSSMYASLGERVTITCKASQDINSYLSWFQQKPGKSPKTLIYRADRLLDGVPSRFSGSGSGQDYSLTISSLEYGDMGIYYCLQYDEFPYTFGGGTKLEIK', 'OD450', 0.46);
